Biological target: Na⁺-abhängiges Gallensäuretransportsystem (Bürstensaummembranvesikel des Ileums) (Oryctolagus cuniculus)
Construct: Präparation von Bürstensaummembranvesikeln aus dem Ileum von Kaninchen; from tissue; host or cells: Brush border membrane vesicles from the terminal ileum of male New Zealand rabbits (Mg2+ precipitation method)
Assay: Inhibition of [³H]-taurocholate uptake into brush border membrane vesicles of rabbit ileum (membrane filtration technique)
Assay type: biochemical, Kaninchen
Conditions: quotient of IC50Na of reference Taurochenodesoxycholat (TCDC) and IC50Na of test substance; Na⁺-dependent transport part (difference Na-T-P minus K-T-P), 50 µM Taurocholat
From the text: Die biologische Prüfung der erfindungsgemäßen Verbindungen erfolgte durch Ermittlung der Hemmung der [³H]-Taurocholataufnahme in Bürstensaummembranvesikel des Ileums von Kaninchen. Der Hemmtest wurde wie folgt durchgeführt: 1. Präparation von Bürstensaummembranvesikeln aus dem Ileum von Kaninchen Die Präparation von Bürstensaummembranvisikeln aus den Darmzellen des Dünndarm erfolgte mit der sogenannten Mg²⁺-Präzipitationsmethode. […]
Measured IC50Na-TCDC[µmol] / IC50Na-Substanz[µmol], listed per entry for reference.
observed property: IC50Na-TCDC[µmol] / IC50Na-Substanz[µmol]

line notation	value observed
COC(=O)CC[C@@H](C)[C@H]1CC[C@H]2[C@@H]3[C@H](OCCNC(=O)CCC(=O)NCCCNC(=O)CC[C@@H](C)[C@H]4CC[C@H]5[C@@H]6[C@H](O)C[C@@H]7C[C@H](OC(c8ccccc8)c8ccccc8)CC[C@]7(C)[C@H]6C[C@H](O)[C@]45C)C[C@@H]4C[C@H](OC(C)=O)CC[C@]4(C)[C@H]3C[C@H](O)[C@]12C	0,12
C[C@H](CCC(=O)NCCCNC(=O)CCC(=O)NCCO[C@@H]1C[C@@H]2C[C@H](O)CC[C@]2(C)[C@H]2C[C@H](O)[C@]3(C)[C@@H]([C@H](C)CCC(=O)O)CC[C@H]3[C@H]12)[C@H]1CC[C@H]2[C@@H]3[C@H](O)C[C@@H]4C[C@H](O)CC[C@]4(C)[C@H]3C[C@H](O)[C@]12C	0,80
C[C@H](CCC(=O)N[C@H]1C[C@@H]2C[C@H](O)CC[C@]2(C)[C@H]2C[C@H](O)[C@]3(C)[C@@H]([C@H](C)CCC(=O)O)CC[C@H]3[C@H]12)[C@H]1CC[C@H]2[C@@H]3[C@H](O)C[C@@H]4C[C@H](O)CC[C@]4(C)[C@H]3CC[C@]12C	0,44

----------
Measured IC50-TCDC[µmol] / IC50-Substanz[µmol], listed per entry for reference.
Target: Na⁺-abhängiges Gallensäuretransportsystem (Bürstensaummembranvesikel des Ileums) (Oryctolagus cuniculus)
Construct: Präparation von Bürstensaummembranvesikeln aus dem Ileum von Kaninchen; from tissue; host or cells: Brush border membrane vesicles from the terminal ileum of male New Zealand rabbits (Mg2+ precipitation method)
Sequence (Q28727 1-347): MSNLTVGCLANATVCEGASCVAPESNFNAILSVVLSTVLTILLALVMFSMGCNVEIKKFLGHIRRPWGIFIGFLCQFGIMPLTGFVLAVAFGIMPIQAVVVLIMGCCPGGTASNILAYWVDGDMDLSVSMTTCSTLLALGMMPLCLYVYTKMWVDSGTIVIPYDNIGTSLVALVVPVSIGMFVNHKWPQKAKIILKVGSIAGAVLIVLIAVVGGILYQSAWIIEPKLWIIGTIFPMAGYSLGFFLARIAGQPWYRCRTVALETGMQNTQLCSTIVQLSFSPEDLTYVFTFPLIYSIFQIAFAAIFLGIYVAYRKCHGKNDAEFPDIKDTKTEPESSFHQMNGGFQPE
Assay: Inhibition of [³H]-taurocholate uptake into brush border membrane vesicles of rabbit ileum (membrane filtration technique)
Assay type: biochemical, Kaninchen
Details: quotient of IC50 of reference Taurochenodesoxycholat (TCDC) and IC50 of test substance; [³H]-Taurocholat uptake, 50 µM Taurocholat, usually 1 min incubation
observed property: IC50-TCDC[µmol] / IC50-Substanz[µmol]

molecule	value observed
C[C@H](CCC(=O)NCCO[C@@H]1C[C@@H]2C[C@H](O)CC[C@]2(C)[C@H]2C[C@H](O)[C@]3(C)[C@@H]([C@H](C)CCC(=O)O)CC[C@H]3[C@H]12)[C@H]1CC[C@H]2[C@@H]3[C@H](O)C[C@@H]4C[C@H](O)CC[C@]4(C)[C@H]3C[C@H](O)[C@]12C [Beispiel 30]	0,93
C[C@H](CCC(=O)N[C@H]1C[C@@H]2C[C@H](O)CC[C@]2(C)[C@H]2C[C@H](O)[C@]3(C)[C@@H]([C@H](C)CCC(=O)O)CC[C@H]3[C@H]12)[C@H]1CC[C@H]2[C@@H]3[C@H](O)C[C@@H]4C[C@H](O)CC[C@]4(C)[C@H]3CC[C@]12C [Beispiel 27]	0,64
C[C@H](CCC(=O)N[C@H]1C[C@@H]2C[C@H](O)CC[C@]2(C)[C@H]2C[C@H](O)[C@]3(C)[C@@H]([C@H](C)CCC(=O)NCCS(=O)(=O)O)CC[C@H]3[C@H]12)[C@H]1CC[C@H]2[C@@H]3[C@H](O)C[C@@H]4C[C@H](O)CC[C@]4(C)[C@H]3C[C@H](O)[C@]12C [Beispiel 39]	0,92
C[C@H](CCC(=O)N[C@H]1C[C@@H]2C[C@H](O)CC[C@]2(C)[C@H]2C[C@H](O)[C@]3(C)[C@@H]([C@H](C)CCC(=O)NCCS(=O)(=O)O)CC[C@H]3[C@H]12)[C@H]1CC[C@H]2[C@@H]3[C@H](O)C[C@@H]4C[C@H](O)CC[C@]4(C)[C@H]3CC[C@]12C [Beispiel 40]	0,54
C[C@H](CCC(=O)NCCCNC(=O)CCC(=O)NCCO[C@@H]1C[C@@H]2C[C@H](O)CC[C@]2(C)[C@H]2C[C@H](O)[C@]3(C)[C@@H]([C@H](C)CCC(=O)O)CC[C@H]3[C@H]12)[C@H]1CC[C@H]2[C@@H]3[C@H](O)C[C@@H]4C[C@H](O)CC[C@]4(C)[C@H]3C[C@H](O)[C@]12C [Beispiel 32]	1,00
C[C@H](CCC(=O)N[C@H]1C[C@@H]2C[C@H](O)CC[C@]2(C)[C@H]2C[C@H](O)[C@]3(C)[C@@H]([C@H](C)CCC(=O)O)CC[C@H]3[C@H]12)[C@H]1CC[C@H]2[C@@H]3CC[C@@H]4C[C@H](O)CC[C@]4(C)[C@H]3CC[C@]12C [Beispiel 29]	0,23
C[C@H](CCC(=O)N[C@H]1C[C@@H]2C[C@H](O)CC[C@]2(C)[C@H]2C[C@H](O)[C@]3(C)[C@@H]([C@H](C)CCC(=O)O)CC[C@H]3[C@H]12)[C@H]1CC[C@H]2[C@@H]3[C@@H](O)C[C@@H]4C[C@H](O)CC[C@]4(C)[C@H]3CC[C@]12C [Beispiel 28]	0,54
C[C@H](CCC(=O)NCCO[C@@H]1C[C@@H]2C[C@H](O)CC[C@]2(C)[C@H]2C[C@H](O)[C@]3(C)[C@@H]([C@H](C)CCC(=O)NCCS(=O)(=O)O)CC[C@H]3[C@H]12)[C@H]1CC[C@H]2[C@@H]3[C@H](O)C[C@@H]4C[C@H](O)CC[C@]4(C)[C@H]3C[C@H](O)[C@]12C [Beispiel 43]	1,18

Values compiled from patent EP0624593A2.
